- system_tested: 5-hydroxytryptamine receptor 1A (Homo sapiens, UniProt P08908)
- Assay type: functional, cell-based
Could you please report measured AC50 for the items listed next?

{"columns": ["compound", "endpoint_result"],
 "data": [
  ["COC(=O)C1=C(C)NC(C)=C(C(=O)OC(C)C)C1c1cccc2nonc12 (stereo not drawn)", "> 10 µM"],
  ["CCOC(=O)[C@H](CCc1ccccc1)N[C@H]1CCCN2CCC[C@@H](C(=O)O)N2C1=O", "> 30 µM"],
  ["NS(=O)(=O)c1cc(-c2nnn[nH]2)c(NCc2cccs2)cc1Cl [AZOSEMIDE]", "> 30 µM"]
]}

# batch: return AC50 for each of the 4 compounds below
1. CCCS(=O)(=O)Nc1ccc(F)c(C(=O)c2c[nH]c3ncc(-c4ccc(Cl)cc4)cc23)c1F
2. NS(=O)(=O)c1cc2c(cc1Cl)NC(CC1CCCC1)NS2(=O)=O (stereo not drawn) [CYCLOPENTHIAZIDE]
3. C#CCN(C)[C@H](C)Cc1ccccc1
4. CC(C)c1c(C(=O)Nc2ccccc2)c(-c2ccccc2)c(-c2ccc(F)cc2)n1CC[C@@H](O)C[C@@H](O)CC(=O)O

Marked response:
> 30 µM
> 30 µM
> 10 µM
> 10 µM

----------
- system_tested: Prostaglandin G/H synthase 1 (Rattus norvegicus); also: assay procedure not described here
- Sequence (Q63921 whole entry): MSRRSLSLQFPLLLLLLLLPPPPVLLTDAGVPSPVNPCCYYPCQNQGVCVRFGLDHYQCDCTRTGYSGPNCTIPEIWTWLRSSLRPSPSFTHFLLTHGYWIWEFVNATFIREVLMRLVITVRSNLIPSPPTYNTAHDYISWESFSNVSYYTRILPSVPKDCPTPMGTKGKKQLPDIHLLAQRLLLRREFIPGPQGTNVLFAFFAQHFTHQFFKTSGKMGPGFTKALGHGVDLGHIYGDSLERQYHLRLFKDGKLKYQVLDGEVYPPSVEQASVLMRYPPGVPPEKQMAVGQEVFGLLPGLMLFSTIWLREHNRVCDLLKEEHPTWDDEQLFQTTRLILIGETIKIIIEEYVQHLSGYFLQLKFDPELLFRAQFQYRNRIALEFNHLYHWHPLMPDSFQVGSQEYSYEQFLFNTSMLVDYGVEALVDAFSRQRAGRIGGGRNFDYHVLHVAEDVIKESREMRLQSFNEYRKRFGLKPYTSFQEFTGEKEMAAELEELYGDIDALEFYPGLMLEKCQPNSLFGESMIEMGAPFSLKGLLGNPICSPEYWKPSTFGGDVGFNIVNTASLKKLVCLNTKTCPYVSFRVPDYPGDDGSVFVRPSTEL
- Assay type: functional
Could you please report measured AC50 for the items listed next?

// worked examples, AC50 included
{"columns": ["compound", "endpoint_result"],
 "data": [
  ["N[C@@H](C(=O)N[C@@H]1C(=O)N2C(C(=O)O)=C(Cl)CS[C@H]12)c1ccccc1 [CEFACLOR ANHYDROUS]", "> 30 µM"],
  ["CCCCCCC(C)(C)c1cc(O)c2c(c1)OC(C)(C)C1CCC(=O)CC21 (stereo not drawn) [NABILONE]", "> 30 µM"],
  ["CC(=O)OCC(=O)[C@@]12OC3(CCCC3)O[C@@H]1C[C@H]1[C@@H]3CCC4=CC(=O)C=C[C@]4(C)[C@@]3(F)[C@@H](O)C[C@@]12C [AMCINONIDE]", "> 10 µM"]
]}

# batch: return AC50 for each of the 2 compounds below
1. CN1CCc2cccc3c2[C@H]1Cc1ccc(O)c(O)c1-3 [APOMORPHINE]
2. CCCCOc1cc(C(=O)NCCN(CC)CC)c2ccccc2n1 [DIBUCAINE]

Marked response:
20.4 µM
> 10 µM

# batch: return AC50 for each of the 3 compounds below
1. COc1ccccc1OCC(O)COC(N)=O (stereo not drawn) [METHOCARBAMOL]
2. CC(=O)NS(=O)(=O)c1ccc(N)cc1 [SULFACETAMIDE]
3. COC(=O)N[C@H](C(=O)N[C@@H](Cc1ccccc1)[C@@H](O)CN(Cc1ccc(-c2ccccn2)cc1)NC(=O)[C@@H](NC(=O)OC)C(C)(C)C)C(C)(C)C [ATAZANAVIR]

Marked response:
1: > 10 µM; 2: > 10 µM; 3: > 10 µM

----------
- system_tested: 5-hydroxytryptamine receptor 1A (Homo sapiens)
- Sequence (P08908 whole entry): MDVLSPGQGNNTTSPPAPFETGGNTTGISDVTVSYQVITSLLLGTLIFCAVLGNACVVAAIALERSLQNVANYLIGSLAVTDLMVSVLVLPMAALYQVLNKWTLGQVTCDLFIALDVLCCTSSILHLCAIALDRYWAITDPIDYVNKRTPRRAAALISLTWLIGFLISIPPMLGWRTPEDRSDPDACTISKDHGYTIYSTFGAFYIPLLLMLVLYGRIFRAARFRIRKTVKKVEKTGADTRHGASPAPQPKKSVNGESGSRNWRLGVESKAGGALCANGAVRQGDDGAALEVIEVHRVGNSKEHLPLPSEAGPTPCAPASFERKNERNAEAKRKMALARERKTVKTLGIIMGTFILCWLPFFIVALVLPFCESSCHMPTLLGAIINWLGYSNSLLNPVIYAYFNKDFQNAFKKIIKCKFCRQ
- Assay type: functional, cell-based
Could you please report measured AC50 for the items listed next?

// worked examples, AC50 included
{"columns": ["compound", "AC50"],
 "data": [
  ["CC(C)(N)Cc1ccc(Cl)cc1 [CHLORPHENTERMINE]", "> 10 µM"],
  ["CC(C(=O)O)c1ccc(N2CC=CC2)c(Cl)c1 (stereo not given) [PIRPROFEN]", "> 10 µM"]
]}

# batch: return AC50 for each of the 2 compounds below
1. CC(C)c1c(C(=O)Nc2ccccc2)c(-c2ccccc2)c(-c2ccc(F)cc2)n1CC[C@@H](O)C[C@@H](O)CC(=O)O [ATORVASTATIN]
2. CN[C@@H]1[C@H](O)[C@H](NC)[C@H]2O[C@@]3(O)C(=O)C[C@@H](C)O[C@H]3O[C@@H]2[C@H]1O [SPECTINOMYCIN]

Marked response:
1. > 10 µM
2. > 30 µM

# batch: return AC50 for each of the 2 compounds below
1. OCc1cc([C@@H](O)CNCCCCCCOCCOCc2c(Cl)cccc2Cl)ccc1O [VILANTEROL]
2. CC(=O)O[C@@]12CO[C@@H]1C[C@H](O)[C@@]1(C)C(=O)[C@H](O)C3=C(C)[C@@H](OC(=O)[C@H](O)[C@@H](NC(=O)OC(C)(C)C)c4ccccc4)C[C@@](O)([C@@H](OC(=O)c4ccccc4)[C@H]21)C3(C)C [DOCETAXEL ANHYDROUS]

Marked response:
1. > 30 µM
2. > 30 µM

# batch: return AC50 for each of the 4 compounds below
1. C[C@H]1C[C@@H]2[C@H]([C@@H](O)C[C@@]3(C)[C@H]2CC[C@]3(O)C(=O)CO)[C@@]2(C)C=CC(=O)C=C12 [METHYLPREDNISOLONE]
2. COCC1=C(C(=O)OC(C)OC(=O)OC(C)C)N2C(=O)[C@@H](NC(=O)/C(=N\OC)c3csc(N)n3)[C@H]2SC1 (stereo not given in full) [CEFPODOXIME PROXETIL]
3. C=C1CC[C@@]2(O)[C@H]3Cc4ccc(O)c5c4[C@@]2(CCN3CC2CC2)[C@H]1O5
4. CN(C)C(=O)OC1N=C(c2ccccc2)c2cc(Cl)ccc2N(C)C1=O (stereo not given) [CAMAZEPAM]

Marked response:
1. > 10 µM
2. > 30 µM
3. > 30 µM
4. > 10 µM

Source: ChEMBL document CHEMBL5291721
